Target: Cyclin Dependent Kinase 4/Cyclin D3 (CDK4-cycD3) (Homo sapiens, UniProt P11802)
Construct: purchased Carna Biosciences 04-105
Sequence (P11802 whole entry): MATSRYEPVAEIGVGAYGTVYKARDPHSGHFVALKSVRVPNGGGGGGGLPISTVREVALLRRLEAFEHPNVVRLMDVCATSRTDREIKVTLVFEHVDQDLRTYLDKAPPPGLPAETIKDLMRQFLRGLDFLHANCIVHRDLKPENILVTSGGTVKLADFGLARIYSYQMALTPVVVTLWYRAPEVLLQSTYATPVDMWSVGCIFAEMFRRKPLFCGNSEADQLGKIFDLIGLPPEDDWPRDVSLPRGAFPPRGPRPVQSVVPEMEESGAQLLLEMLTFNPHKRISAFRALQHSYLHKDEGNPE
Sequence (P30281 whole entry partner): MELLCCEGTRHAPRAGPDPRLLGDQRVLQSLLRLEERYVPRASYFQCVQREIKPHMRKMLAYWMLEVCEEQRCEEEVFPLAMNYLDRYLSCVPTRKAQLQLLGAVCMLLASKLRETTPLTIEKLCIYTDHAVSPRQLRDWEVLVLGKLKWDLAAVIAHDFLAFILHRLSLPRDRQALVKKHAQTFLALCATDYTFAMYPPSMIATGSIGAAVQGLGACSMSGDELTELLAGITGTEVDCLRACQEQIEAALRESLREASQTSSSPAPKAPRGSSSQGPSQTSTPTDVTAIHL
Experiment: CDK4-cycD3 TR-FRET (LANCE) enzyme assay
Type: biochemical
Settings: Table O, enzymatic assay
measured_quantity: Ki (nM)

{"molecular_string": "CCn1nc(Nc2cc([C@H]3CC[C@@H](OC(=O)NC(C)C)C3)[nH]n2)ccc1=O", "measured_quantity": "Ki", "experimental_value": 210}
{"molecular_string": "Cc1nc(C#N)ccc1Nc1cc([C@H]2CC[C@@H](OC(=O)NC(C)C)C2)[nH]n1", "measured_quantity": "Ki", "experimental_value": 1300}
{"molecular_string": "Cn1nc(Nc2cc([C@H]3CC[C@@H](OC(=O)NC45CC(C4)C5)C3)[nH]n2)ccc1=O", "measured_quantity": "Ki", "experimental_value": 20}
{"molecular_string": "CC(C)NC(=O)O[C@@H]1CC[C@H](c2cc(Nc3ccc(-n4cccn4)nc3)n[nH]2)C1", "measured_quantity": "Ki", "experimental_value": 480}
{"molecular_string": "CC(C)NC(=O)O[C@@H]1CC[C@H](c2cc(Nc3cccnc3)n[nH]2)C1", "measured_quantity": "Ki", "experimental_value": 75}
{"molecular_string": "CC(C)(C)NC(=O)O[C@@H]1CC[C@H](c2cc(Nc3ccncc3)n[nH]2)C1", "measured_quantity": "Ki", "experimental_value": 110}
{"molecular_string": "CN1CCC(NC(=O)O[C@@H]2CC[C@H](c3cc(Nc4cccnn4)n[nH]3)C2)CC1", "measured_quantity": "Ki", "experimental_value": 720}
{"molecular_string": "CC(C)NC(=O)O[C@@H]1CC[C@H](c2cc(Nc3cnccn3)n[nH]2)C1", "measured_quantity": "Ki", "experimental_value": 7.4}
